Every entry's value here was drawn from ChEMBL document CHEMBL1157542.

Reported Ki, Cathepsin D (Homo sapiens, UniProt P07339).
Numbers only here, please. The scale is µM.

INSERT INTO results (mol, system_tested, numeric_value) VALUES
  ('CO[C@H](C[C@H](O)[C@H](COc1cc(F)cc(F)c1)NC(=O)c1cc(C(=O)N[C@H](C)c2ccccc2)cc(N(C)CS(C)(=O)=O)c1)C(=O)N[C@H](C(=O)NCc1ccccc1)C(C)C', 'Cathepsin D (Homo sapiens, UniProt P07339)', 1.1);

Attention now turns to another entry.
So, `CO[C@H](C[C@H](O)[C@H](COc1ccccc1)NC(=O)c1cc(C(=O)N[C@H](C)c2ccccc2)cc(N(C)CS(C)(=O)=O)c1)C(=O)N[C@H](C(=O)NCc1ccccc1)C(C)C` ? Its Ki was 0.46
